Kd overview
# ASSAYED TARGET: T1, Human ANGPTL4(26-406)-FLAG-His6-Avi (human, UniProt Q9BY76 24-406, biotin on the C-terminal Avi tag in the biotinylated preparations (immobilised form in SET, ELISA and Octet))
# T1 construct: also called full-length human ANGPTL4; hANGPTL4
# T1 sequence: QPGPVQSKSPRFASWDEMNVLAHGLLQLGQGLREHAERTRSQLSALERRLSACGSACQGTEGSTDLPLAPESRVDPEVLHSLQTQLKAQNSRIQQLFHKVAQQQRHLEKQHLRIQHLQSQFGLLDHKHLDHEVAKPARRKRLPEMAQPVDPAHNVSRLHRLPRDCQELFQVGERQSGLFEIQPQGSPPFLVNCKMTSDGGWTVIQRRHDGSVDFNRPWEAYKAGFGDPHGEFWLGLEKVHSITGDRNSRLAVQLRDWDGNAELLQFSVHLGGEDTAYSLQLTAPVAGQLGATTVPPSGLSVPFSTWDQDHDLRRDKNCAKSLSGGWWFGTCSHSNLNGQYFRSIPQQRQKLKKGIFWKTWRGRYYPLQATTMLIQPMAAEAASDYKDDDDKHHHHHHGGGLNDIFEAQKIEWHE
# METHOD NOTES: SET assay (solution equilibrium titration, MSD), IgG
ASSAY ENDPOINT: Kd (nM)

1) MOR021823 (antibody, human IgG1, kappa, V domains shown, human IgG1) VH: QVQLLESGGGLVQPGGSLRLSCAASGFTFSSYYLHWVRQAPGKGLEWVSYISGDGSSTYYADSVKGRFTISRDNSKNTLYLQMNSLRAEDTAVYYCARERSYAHDHWGQGTLVTVSS VL: DIQMTQSPSSLSASVGDRVTITCRASQDIYIDLNWYQQKPGKAPKLLIYAASKLQSGVPSRFSGSGSGTDFTLTISSLQPEDFATYYCQQGYFLPQTFGQGTKVEIKR ... 0.009
2) MOR022772 (antibody, human IgG1, kappa, V domains shown, human IgG1) VH: EVQLLESGGGLVQPGGSLRLSCAASGFTFSSYWMHWVRQAPGKGLEWVSGISYDASSTNYADSVKGRFTISRDNSKNTLYLQMNSLRAEDTAVYYCARDSYIYDLHWGFDNWGQGTLVTVSS VL: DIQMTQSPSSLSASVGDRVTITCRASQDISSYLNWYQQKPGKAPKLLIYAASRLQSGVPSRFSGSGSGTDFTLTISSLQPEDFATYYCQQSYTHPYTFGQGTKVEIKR ... 0.053
3) MOR021830 (antibody, human IgG1, kappa, V domains shown, human IgG1) VH: QVQLLESGGGLVQPGGSLRLSCAASGFTFSSYWMHWVRQAPGKGLEWVSGISYDGSSTNYADSVKGRFTISRDNSKNTLYLQMNSLRAEDTAVYYCARDSYIYDLHWGFDNWGQGTLVTVSS VL: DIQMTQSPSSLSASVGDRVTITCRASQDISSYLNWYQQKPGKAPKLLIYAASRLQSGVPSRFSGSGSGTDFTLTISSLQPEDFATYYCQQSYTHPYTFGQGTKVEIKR ... 0.026

The values you see were collected from patent US20160108110A1.
